Where these numbers come from: patent US20110286916A1

This section presents binders with their documented hN3, inhibition of Luc activity at [166 nM] Mab values.
system name: human Notch3-Gal4 chimeric receptor on U2OS FlpIn TREx cells (human, UniProt Q9UM47 40-2321)
measurement description: cell-based or functional assay

binder="S3-009 (antibody, human IgG1, lambda, V domains shown, also called hN1S3-009; HN1S3-9) VH: EVQLVQSGAEVKKPGASVKVSCKASGYNFTGYYMHWVRQAPGQGLEWMGWINPNSGGTNYAQKFQGRVTMTRDTSISTAYMELSRLRSDDTAVYYCATDSFDYWGQGTMVTVSS VL: SYVLTQPPSVSEAPRQRVTISCSGSSSNIGNNAVSWYQQLPGKAPKTLIYYDDLLSSGVSDRFSGSRSGTSASLAISGLQSEDEADYYCAAWDDSLNGVVFGGGTKLTVLQ" result="< 20%"
binder="WC-629 (antibody, human IgG1, lambda, V domains shown) VH: EVQLVQSGAEVKKPGSSVKVSCKASGGTLSSYTVSWLRQAPGQGLEWMGRIIPILDRANYAQKFQGRVTITADKSTSTAYMELNSLRSDDTAVYYCARSIGAAGDGVWFDPWGQGTMVTVSS VL: QAVLTQPSSVSGAPGQRVTISCTGSSSNIGAGYDVHWYQQLPGTAPKLLIFDNKNRPSGVPDRFSGSNSGTSASLAITGLQAEDEAEYYCQSYDNNLSGRVFGGGTKLTVLQ" result="< 10%"

Now turn to the next binder.
## Task For S3-094 (antibody, human IgG1, lambda, V domains shown, also called hN1S3-094; HN1S3-94) VH: EVQLVQSGAEVKKPGASVKVSCKASGYNFTGYYMHWVRQAPGQGLEWMGWINPNSGGTNYAQKFQGRVTMTRDTSISTAYMELSRLRSDDTAVYYCATDSFDYWGRGTMVTVSS VL: QSVLTQPPSASGTPGQRVTISCSGGSSNIGSNTVTWYQQLPGKAPKLLIYISDQRPSGVPDRFSGSKSGTSASLAIRGLQSEDEADYYCAAWDDSLNGAVFGTGTKVTVLQ , what is its reported hN3, inhibition of Luc activity at [166 nM] Mab?
## Result < 10%
